system: UACC-257 melanoma; test: NCI-60 one-dose screen, 48 h (100 = growth as untreated, 0 = no growth, -100 = all killed); conditions: 10 µM unless noted
This is part of a sample that, as a whole, favours compounds with a hit. Of some 83,000 tested, about 20% had one in any assay.
REPORTED METRIC: growth (%)

> print(dat)
                                    compound  observed.result
 1  O=C1/C(=C/c2ccccc2)CCc2nc3ccccc3c(/C=C/c3ccc(Cl)cc3)c21             82.8
 2                    c1c[nH]c(CNC2CCCCC2)c1              119
 3  O=C1/C(=C/c2ccc(F)cc2)C=C(c2ccccc2)N1CCc1ccccc1             38.6
 4  Clc1cc(Cl)cc(Nc2ccc3cc(OCCCN4CCOCC4)ccc3n2)c1               49
 5      O=C(Nc1ccccc1Cl)Oc1ccc(-c2ccccc2)cc1              111
 6  O=C(Nc1cccc(C(F)(F)F)c1)Nc1cccc(C(F)(F)F)c1            -32.9
 7     Cc1ccccc1NC(=O)N/C(N)=N/c1nc(C)c(C)s1             67.8
 8  Cc1ccc(C(=O)C2=C(O)C(=O)N(Cc3cccnc3)C2c2ccccc2F)o1 (stereo not given)             95.7
 9  Cc1c(C(=O)NC(Cc2ccccc2)C(O)C(=O)NCc2ccc(F)cc2)[nH]c2ccccc2c1=O (stereo not given)              103
10  O=C(/C=C/c1cccc(O)c1)c1cccc(-n2cc(-c3ccc4ccccc4c3)[nH]c2=O)c1             99.6
